B1: glmS ribozyme (parent)
chain: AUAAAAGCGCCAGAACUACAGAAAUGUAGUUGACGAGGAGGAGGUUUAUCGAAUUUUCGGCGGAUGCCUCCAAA

Variants of: B1
Test Method Notes: self-cleavage kobs at 160 uM GlcN6P; higher = faster cleavage; RNA array
Recorded Conditions: with glucosamine-6-phosphate
This sample holds only a part of the variants without activity.

{"columns": ["Variant Identifier", "Value Unit", "Prefix Operator", "self-cleavage kobs at 160 uM GlcN6P"],
 "data": [
  ["A14U U49C U57G C70G", "s⁻¹", "=", "9.25e-05"],
  ["U30C U54G C68A", "s⁻¹", "=", 0.000132],
  ["C11A A39C U49C", "s⁻¹", "<", "1e-05"],
  ["A36U C50G U69G", "s⁻¹", "=", 0.000219],
  ["G29C C70A", "s⁻¹", "=", "2.35e-05"],
  ["A6C A12G", "s⁻¹", "<", "1e-05"],
  ["C16U G41C", "s⁻¹", "=", "2.95e-05"],
  ["G9C C11A", "s⁻¹", "<", "1e-05"],
  ["G13A G41U G43C", "s⁻¹", "<", "1e-05"],
  ["C16U C71G", "s⁻¹", "=", 0.00019],
  ["U46G C67G", "s⁻¹", "=", "2.86e-05"],
  ["G9C C50G", "s⁻¹", "=", 0.00045],
  ["U31C G35A", "s⁻¹", "<", "1e-05"],
  ["G44A U49A", "s⁻¹", "<", "1e-05"],
  ["C16A A36G", "s⁻¹", "<", "1e-05"],
  ["G9U G37A", "s⁻¹", "<", "1e-05"],
  ["U31G A39G", "s⁻¹", "=", 0.00122],
  ["G7U A15C A36U U47C", "s⁻¹", "<", "1e-05"],
  ["G7A A48U A53U U65A", "s⁻¹", "<", "1e-05"],
  ["A15G U31G A39U", "s⁻¹", "=", 0.000104],
  ["G7A U30C G60U A64C", "s⁻¹", "<", "1e-05"],
  ["U46C U55G", "s⁻¹", "=", 0.000255]
]}
